Data origin, for the record: patent US7816371B2

- experimental.target: P2X7 receptor (Homo sapiens)
- Sequence (Q99572 whole entry): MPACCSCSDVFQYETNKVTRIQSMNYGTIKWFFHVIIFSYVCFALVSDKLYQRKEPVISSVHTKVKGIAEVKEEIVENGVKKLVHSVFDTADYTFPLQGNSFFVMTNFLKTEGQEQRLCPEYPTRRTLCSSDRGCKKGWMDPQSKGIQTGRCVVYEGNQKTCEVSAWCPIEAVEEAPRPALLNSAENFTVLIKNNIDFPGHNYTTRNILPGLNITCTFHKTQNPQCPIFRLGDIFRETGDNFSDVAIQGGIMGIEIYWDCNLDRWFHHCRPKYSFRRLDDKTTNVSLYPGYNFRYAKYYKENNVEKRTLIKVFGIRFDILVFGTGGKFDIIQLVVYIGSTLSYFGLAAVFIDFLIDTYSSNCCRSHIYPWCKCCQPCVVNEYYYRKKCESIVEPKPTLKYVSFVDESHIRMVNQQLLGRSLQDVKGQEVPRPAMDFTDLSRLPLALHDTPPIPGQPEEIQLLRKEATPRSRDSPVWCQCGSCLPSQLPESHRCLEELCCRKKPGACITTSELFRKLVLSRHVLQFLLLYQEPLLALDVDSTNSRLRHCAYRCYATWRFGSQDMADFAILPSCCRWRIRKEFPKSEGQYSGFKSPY
- test: IL-1β release assay in differentiated THP-1 cells stimulated with BzATP (Example 9); % inhibition and IC50
- protocol.conditions: THP-1 cells differentiated with LPS and IFN-γ, 30 min pretreatment, BzATP 250 uM, IL-1β by ELISA
recorded.metric: IC50

# example entries with known answers
COc1ccc(C(=O)Nc2cccc3c(=O)n(C(CO)CO)ccc23)c(OC)c1 [Compound 5] ... > 1000 nM
CS(=O)(=O)c1ccc(CCC(=O)Nc2cccc3c(=O)n(CCO)ccc23)cc1 [Compound 71] ... > 1000 nM

For the next question, use this molecule.
Input COc1ccc(CC(=O)Nc2cccc3c(=O)n(CCO)ccc23)cc1 [Compound 2] . Output IC50: > 1000 nM
